- EXPERIMENTAL_TARGET: UniProtKB P48730
- Sequence (P48730 whole entry): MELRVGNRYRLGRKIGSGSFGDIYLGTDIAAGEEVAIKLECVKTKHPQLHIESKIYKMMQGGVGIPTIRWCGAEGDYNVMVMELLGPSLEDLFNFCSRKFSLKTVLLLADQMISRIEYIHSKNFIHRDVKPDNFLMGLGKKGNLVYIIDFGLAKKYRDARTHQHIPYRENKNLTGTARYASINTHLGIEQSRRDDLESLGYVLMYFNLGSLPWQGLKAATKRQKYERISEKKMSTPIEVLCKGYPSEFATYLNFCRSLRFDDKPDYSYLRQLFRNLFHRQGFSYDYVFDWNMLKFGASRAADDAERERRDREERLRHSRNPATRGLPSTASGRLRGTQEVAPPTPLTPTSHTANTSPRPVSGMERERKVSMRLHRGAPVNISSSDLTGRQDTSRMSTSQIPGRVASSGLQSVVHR
- ASSAY_EXPLANATION: In vitro kinase assay, CK1d, 32P-ATP filter binding (Reaction Biology Corporation)
- Assay type: biochemical
- MEASUREMENT_CONDITIONS: footnote a: determined by Reaction Biology Corporation; read-out: IC50 CK1d
I'd appreciate it if you could supply pIC50 values for the items below.
Value format note: pIC50 is -log10 of concentration (mol/L); just state the number.

Looking up c1ccc2cc3[nH]c(CNc4nc(N5CCOCC5)nc5c4ncn5-c4ccsc4)nc3cc2c1 , I found its pIC50 recorded as 6.89

Looking up CN1CCN(c2nc(NCc3nc4cc(Cl)ccc4[nH]3)c3ncn(-c4ccoc4)c3n2)CC1 , I found its pIC50 recorded as 7.96

Looking up c1ccc2[nH]c(CNc3nc(N4CCOCC4)nc4c3ncn4C3CCCC3)nc2c1 , I found its pIC50 recorded as 7.34

Looking up Fc1ccc2[nH]c(CNc3nc(N4CCOCC4)nc4c3ncn4-c3ccsc3)nc2c1 , I found its pIC50 recorded as 7.30

====

- EXPERIMENTAL_TARGET: FLT3 (Homo sapiens)
- Construct: Reaction Biology Corporation (contract assay)
- Sequence (P36888 27-993): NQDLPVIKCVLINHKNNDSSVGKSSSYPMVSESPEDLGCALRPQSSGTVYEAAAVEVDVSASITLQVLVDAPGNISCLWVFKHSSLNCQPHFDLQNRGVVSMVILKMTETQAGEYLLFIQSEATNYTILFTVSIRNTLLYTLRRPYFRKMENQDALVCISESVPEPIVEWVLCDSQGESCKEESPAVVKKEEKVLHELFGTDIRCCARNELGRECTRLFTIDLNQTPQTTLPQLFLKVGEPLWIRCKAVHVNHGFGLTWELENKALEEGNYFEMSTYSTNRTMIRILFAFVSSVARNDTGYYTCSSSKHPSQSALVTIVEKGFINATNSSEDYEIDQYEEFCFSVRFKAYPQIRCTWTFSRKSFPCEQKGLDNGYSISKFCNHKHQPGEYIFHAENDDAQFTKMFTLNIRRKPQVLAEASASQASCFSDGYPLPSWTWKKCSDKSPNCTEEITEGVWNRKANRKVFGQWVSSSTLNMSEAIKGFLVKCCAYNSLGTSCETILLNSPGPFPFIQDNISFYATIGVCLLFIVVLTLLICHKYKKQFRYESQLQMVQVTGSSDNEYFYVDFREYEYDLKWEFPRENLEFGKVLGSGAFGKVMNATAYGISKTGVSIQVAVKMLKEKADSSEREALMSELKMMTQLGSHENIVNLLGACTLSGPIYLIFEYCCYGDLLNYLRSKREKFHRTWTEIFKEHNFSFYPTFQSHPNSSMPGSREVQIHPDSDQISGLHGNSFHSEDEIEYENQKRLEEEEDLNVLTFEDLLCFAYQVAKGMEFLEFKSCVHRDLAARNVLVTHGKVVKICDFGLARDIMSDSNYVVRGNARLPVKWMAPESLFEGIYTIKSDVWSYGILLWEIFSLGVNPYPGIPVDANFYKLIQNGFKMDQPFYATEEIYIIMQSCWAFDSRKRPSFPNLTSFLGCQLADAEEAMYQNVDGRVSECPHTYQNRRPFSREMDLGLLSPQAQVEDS
- ASSAY_EXPLANATION: In vitro kinase assay, FLT3 (Reaction Biology Corporation)
- Assay type: biochemical
- MEASUREMENT_CONDITIONS: determined by Reaction Biology Corporation; read-out: IC50 FLT3
MEASURE_NAME: log10(IC50) (log10 of the value in nM)
log10 IC50, nM

Looking up Clc1ccc2[nH]c(CNc3nc(N4CCOCC4)nc4c3ncn4-c3ccsc3)nc2c1 [SR-1274] , I found its log10(IC50) recorded as 2.48

Looking up COc1ccc2[nH]c(CNc3nc(N4CCN(C)CC4)nc4c3ncn4-c3ccoc3)nc2c1 [SR-2848] , I found its log10(IC50) recorded as 2.47

Looking up FC(F)(F)c1cccc2[nH]c(CNc3nc(N4CCOCC4)nc4c3ncn4-c3ccsc3)nc12 [SR-1272] , I found its log10(IC50) recorded as 2.42

Looking up CCOC(=O)c1cccc2[nH]c(CNc3nc(N4CCOCC4)nc4c3ncn4-c3ccsc3)nc12 [SR-1282] , I found its log10(IC50) recorded as 2.74

Looking up CN1CCN(c2nc(NCc3nc4cc(F)ccc4[nH]3)c3ncn(-c4ccoc4)c3n2)CC1 [SR-2866] , I found its log10(IC50) recorded as 2.33

Looking up c1ccc2cc3[nH]c(CNc4nc(N5CCOCC5)nc5c4ncn5-c4ccsc4)nc3cc2c1 [SR-1280] , I found its log10(IC50) recorded as 2.99

Looking up CS(=O)(=O)c1ccc2[nH]c(CNc3nc(N4CCOCC4)nc4c3ncn4-c3ccsc3)nc2c1 [SR-2797] , I found its log10(IC50) recorded as 1.84

Looking up COc1ccc2[nH]c(CNc3nc(N4CCOCC4)nc4c3ncn4-c3ccsc3)nc2c1 [SR-1279] , I found its log10(IC50) recorded as 1.15

Looking up c1ccc2[nH]c(CNc3nc(N4CCNCC4)nc4c3ncn4-c3ccsc3)nc2c1 [SR-1292] , I found its log10(IC50) recorded as 1.20

Looking up O=[N+]([O-])c1cccc2[nH]c(CNc3nc(N4CCOCC4)nc4c3ncn4-c3ccoc3)nc12 [SR-2007] , I found its log10(IC50) recorded as 2.54
